system: Meloidogyne incognita; assay: Nematicidal activity against Meloidogyne incognita (root-knot nematode) assessed as cumulative percentage of egg hatching at 25 degC at 2000 umol/L on day 7 (SDW control = 12.63 +/- 3.84%); type: functional
Everything with Activity lower than 7% is not fulfilled; everything else, including exactly 7%, is fulfilled.

• CCCCCC(=O)O [HEXANOATE] = not fulfilled
• CCCCCCCCCCCCCCCC(=O)O [PALMITIC ACID] = not fulfilled
• CCCCCCCCCC(=O)O [DECANOIC ACID] = not fulfilled

Enquiry: Reported Activity reaches at least 7% for CCCCCCCCCCCCCC(=O)O [MYRISTIC ACID] ?
Return: not fulfilled

Enquiry: Reported Activity reaches at least 7% for CCCCC/C=C\C/C=C\CCCCCCCC(=O)O [LINOLEIC ACID] ?
Return: not fulfilled

Enquiry: Reported Activity reaches at least 7% for CCCCCCCCCCCC(=O)O [DODECANOATE] ?
Return: fulfilled

Enquiry: Reported Activity reaches at least 7% for CCCCCCCC/C=C\CCCCCCCC(=O)O [OLEIC ACID] ?
Return: fulfilled

Enquiry: Reported Activity reaches at least 7% for CCCC(=O)O [BUTYRIC ACID] ?
Return: not fulfilled

====

tested on: Meloidogyne incognita; assay: Nematicidal activity against Meloidogyne incognita (root-knot nematode) assessed as cumulative percentage of egg hatching at 25 degC at 100 umol/L on day 7 (SDW control = 12.63 +/- 3.84%); assay type: functional
For each entry below, report its Activity value.
Answers are plain numbers, in %.

Take a look at these entries with their results.
* CCCCCCCC/C=C\CCCCCCCC(=O)O | 6.07
* CCCCCCCCCC(=O)O | 4.73
* CCCCCCCC(=O)O | 8.6
* CCCCCCCCCCCC(=O)O [DODECANOATE] | 4.73
* CCCC(=O)O | 6.7
* CCCCCC(=O)O [HEXANOATE] | 2.97
* CCCCCCCCCCCCCC(=O)O | 8.87
* CCCCC/C=C\C/C=C\CCCCCCCC(=O)O | 6.17

Enquiry: Fill in Activity for record CCCCCCCCCCCCCCCC(=O)O
Return: 5.73

====

system: Meloidogyne incognita; experiment: Nematicidal activity against Meloidogyne incognita (root-knot nematode) assessed as cumulative percentage of egg hatching at 25 degC at 2000 umol/L on day 14 (SDW control = 35.77 +/- 4.48%); assay type: functional
Activity vs 10%: less than gives 1; not less than gives 0.

Here are 5 compounds together with their reported answers.
* CCCCCCCCCCCC(=O)O [DODECANOATE] | 0
* CCCCCCCC/C=C\CCCCCCCC(=O)O [OLEIC ACID] | 0
* CCCC(=O)O [BUTYRIC ACID] | 1
* CCCCC/C=C\C/C=C\CCCCCCCC(=O)O [LINOLEIC ACID] | 1
* CCCCCCCCCCCCCCCC(=O)O [PALMITIC ACID] | 0

Enquiry: Does the reported Activity of CCCCCCCC(=O)O [OCTANOIC ACID] stay below 10%?
Return: 0

Enquiry: Does the reported Activity of CCCCCCCCCCCCCC(=O)O [MYRISTIC ACID] stay below 10%?
Return: 0

Enquiry: Does the reported Activity of CCCCCC(=O)O [HEXANOATE] stay below 10%?
Return: 0

Enquiry: Does the reported Activity of CCCCCCCCCC(=O)O [DECANOIC ACID] stay below 10%?
Return: 1

====

test system: Meloidogyne incognita; experiment: Nematicidal activity against Meloidogyne incognita (root-knot nematode) assessed as cumulative percentage of egg hatching at 25 degC at 1000 umol/L on day 14 (SDW control = 35.77 +/- 4.48%); type: functional
For each entry below, report its Activity value.
Numbers only, in %.

- CCCCC/C=C\C/C=C\CCCCCCCC(=O)O [LINOLEIC ACID]: 20.43
- CCCCCCCCCCCCCC(=O)O [MYRISTIC ACID]: 12.93

The following molecules each have a reported value; give each one's Activity.
1. CCCCCCCC(=O)O [OCTANOIC ACID]
2. CCCCCCCC/C=C\CCCCCCCC(=O)O [OLEIC ACID]
3. CCCCCCCCCCCCCCCC(=O)O [PALMITIC ACID]
4. CCCC(=O)O [BUTYRIC ACID]

Return:
1: 16.87; 2: 18.53; 3: 9.53; 4: 17.17

====

system: Meloidogyne incognita; assay: Nematicidal activity against Meloidogyne incognita (root-knot nematode) assessed as cumulative percentage of egg hatching at 25 degC at 100 umol/L on day 14 (SDW control = 35.77 +/- 4.48%); format: functional
quantityName: Activity (%)
Numbers only, in %.

Take a look at these entries with their results.
• CCCCCCCCCCCCCCCC(=O)O = 15.07
• CCCCCCCCCC(=O)O = 19.57
• CCCCCCCC/C=C\CCCCCCCC(=O)O = 16.6
• CCCCCCCC(=O)O = 23.63
• CCCCCC(=O)O [HEXANOATE] = 9.57
• CCCCC/C=C\C/C=C\CCCCCCCC(=O)O = 29.8
• CCCCCCCCCCCCCC(=O)O = 18.4
• CCCCCCCCCCCC(=O)O [DODECANOATE] = 20.1

Now let's try a different one.
Enquiry: Fill in Activity for record CCCC(=O)O
Return: 13.9

====

test system: Meloidogyne incognita; assay: Nematicidal activity against Meloidogyne incognita (root-knot nematode) assessed as cumulative percentage of egg hatching at 25 degC at 1000 umol/L on day 14 (SDW control = 35.77 +/- 4.48%); format: functional
quantityName: Activity (%)
One number for each entry, in %.

• CCCCCC(=O)O [HEXANOATE] = 16.67
• CCCCCCCCCC(=O)O = 11.5

Enquiry: Fill in Activity for record CCCCCCCCCCCC(=O)O [DODECANOATE]
Return: 20.37
